# TARGET_UNDER_TEST: human CXCR3A (Homo sapiens (Human), UniProt P49682)
# Sequence (P49682 whole entry): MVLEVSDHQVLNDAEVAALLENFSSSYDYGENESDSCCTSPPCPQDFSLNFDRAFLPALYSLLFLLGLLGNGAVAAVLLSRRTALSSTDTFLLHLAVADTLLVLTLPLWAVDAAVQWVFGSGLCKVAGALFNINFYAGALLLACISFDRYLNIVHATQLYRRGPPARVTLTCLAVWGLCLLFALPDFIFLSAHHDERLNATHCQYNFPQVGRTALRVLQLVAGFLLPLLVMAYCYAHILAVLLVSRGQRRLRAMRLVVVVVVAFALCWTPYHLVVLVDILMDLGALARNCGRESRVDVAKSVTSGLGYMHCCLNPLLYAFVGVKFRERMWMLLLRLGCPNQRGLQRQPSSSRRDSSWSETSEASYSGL
# PROCEDURE_DETAILS: FLIPR assay (inhibition of CXCL10-induced calcium signal)
# TEST_CONTEXT: engineered CHO-K1 cells expressing human CXCR3A coupled to Galpha(16); Fluo-4-AM; CXCL10 agonist 20 nM; mean values where determined several times
# Description: The bioactivity of compounds is tested in a fluorometric imaging plate reader (FLIPR: Molecular Devices) using engineered CHO-K1 cells expressing the human CXCR3A (GenBank: AY242128) coupled to a G protein (Galpha(16)). […] Following basal readings, 10 microliter CXCL10 agonist at a concentration of 20 nM (from Peprotech) is added, again using the FLIPR instrument. Changes in fluorescence are monitored before and after addition of the test compounds. […]
pIC50: −log10 of the molar value.
ASSAY_ENDPOINT: pIC50

The following compounds have reported results that may help.
Q: Given the entry C[C@@H]1CN(c2ccc(C(F)(F)F)c3c2CN(c2cnc(N(C)C)nc2)CC3)CCN1C(=O)Cn1ncc2cccnc21 , report its measured pIC50.
A: 8.21

Q: How about C[C@@H]1CN(c2cccc3c2CN(c2ccccc2)CC3)CCN1C(=O)Cn1cnc2cccnc21 ?
A: 7.83

Q: How about COc1cccc(N2CCc3c(C(F)(F)F)ccc(N4CCN(C(=O)Cn5cnc6cccnc65)[C@H](C)C4)c3C2)c1 ?
A: 7.89

A: Cc1cc(C)n(CC(=O)N2CCN(c3ccc(C(F)(F)F)c4c3CN(c3ncc(Cl)s3)CC4)C[C@H]2C)n1
B: COc1ncc(N2CCc3c(C(F)(F)F)ccc(N4CCN(C(=O)Cn5nc(C)cc5C)[C@H](C)C4)c3C2)cn1
C: C[C@@H]1CN(c2cccc3c2CN(C(=O)Cn2ccc4ccccc42)CC3)CCN1C(=O)Cn1cnc2cccnc21
D: Cc1cc(C)n(CC(=O)N2CCN(c3ccc(C(F)(F)F)c4c3CN(c3nc5ccc(C#N)cc5s3)CC4)C[C@H]2C)n1
Q: Would you mind ranking these compounds by ascending pIC50? Please write the labels in the order that was asked for.
A: C, A, D, B
(C: 6.52, A: 7.74, D: 8.18, B: 8.43)
